Documented log10(IC50) across a set of compounds
- System name: Pyruvate dehydrogenase kinase (Homo sapiens, UniProt Q15119+Q15120+Q16654+Q15118)
- Test: In vitro inhibitory activity against pyruvate dehydrogenase kinase was determined
- Assay type: protein assay
Quick note: numbers are log10 of IC50, with µM as the unit.

Solved entries (count: 5):
Consider the compound shown here: C[C@]12CC[C@H]3[C@@H](CCC4=C/C(=N/O)CC[C@@H]43)[C@@H]1CC[C@@H]2O What is its recorded log10(IC50)?
0.73

Reported log10(IC50) for C[C@]12CC[C@H]3[C@@H](CCC4=C/C(=N/CC(=O)O)CC[C@@H]43)[C@@H]1CC[C@@H]2O : what is it?
1.75

For C#C[C@]1(O)CC[C@H]2[C@@H]3CCC4=C/C(=N/O)CC[C@@H]4[C@H]3CC[C@@]21C , what is its reported log10(IC50)?
0.76

Any idea what log10(IC50) was measured for CC(C)C1=CC2=CC[C@@H]3[C@](C)(CCC[C@@]3(C)C(=O)O)[C@H]2CC1 [ABIETIC ACID] ?
1.30

So what does the record say about log10(IC50) for C=C=C[C@]1(O)CC[C@H]2[C@@H]3CCC4=C/C(=N/O)CC[C@@H]4[C@H]3CC[C@@]21C ?
-0.08

Next:
# lookup: log10(IC50) of CC(C)c1ccc2c(c1)CC[C@H]1[C@](C)(CN)CCC[C@]21C
0.98

Could you tell me which log10(IC50) is on file for C[C@]12CC/C(=N\O)C[C@@H]1CC[C@@H]1[C@@H]2CC[C@]2(C)[C@@H](O)CC[C@@H]12 ?
1.71
